System: NCI-H460 lung
Assay: NCI tumour cell line growth inhibition, 48 h
Provide the recorded TGI for the entries that follow.

Reference set (5 entries):
[[record]]
smiles_input = "O=c1c2cccc(F)c2sc2c(N3CCNCC3)nc3ccccc3c12"
val = "2.34 µM"

[[record]]
smiles_input = "CCOC(=O)c1ccc2c(c1)nc(/C=C/c1ccc(Cl)cc1)n2-c1cc(C(C)(C)C)[nH]n1"
val = "> 100 µM"

[[record]]
smiles_input = "Clc1nc(Cl)c2c3c(sc2n1)CCCC3"
val = "> 100 µM"

[[record]]
smiles_input = "O=[N+]([O-])c1ccc(Sc2nc(Cl)nc(NC3CCCC3)n2)cc1"
val = "> 10 µM"

[[record]]
smiles_input = "CCC(=O)NC(Nc1cccc(F)c1)(C(F)(F)F)C(F)(F)F"
val = "> 100 µM"


Alright, here's another compound for you.
response.value for c1ccc(N=c2nc(N3CCOCC3)ss2)cc1 (field: TGI) = 34.7 µM
